experimental-protocol: qHTS assay to identify small molecule inhibitors of chordoma cells - UCH-1 (AID 1259355); also: nearly all actives have a fitted effect of over 55% in size
measurement-conditions: UCH-1 chordoma viability, CellTiter-Glo, 48 h, combination; series mostly up to 46.1 µM
Records with an inconclusive call do not appear. Calls of active or inactive are those of the source. Calls follow the shape of the dose curve; as a rule, active = well fitted cell-killing curve with a large enough effect; inconclusive = small, poorly fitted or top-dose-only effect, or effect the other way; inactive = no such curve, though single readings can be large or run the other way.
measured-parameter: outcome

// known answers, use as guide
query: // lookup outcome for CN1C[C@H](CNC(=O)OCc2ccccc2)C[C@@H]2c3cccc4c3c(cn4C)C[C@H]21
result: inactive

query: // lookup outcome for C#CCOC(C(=O)OCCN(C)C)(c1ccccc1)c1ccccc1
result: inactive

query: // lookup outcome for O=C1CC[C@@]2(O)[C@H]3Cc4ccc(O)c5c4[C@@]2(CCN3CC2CC2)[C@H]1O5
result: inactive

query: // lookup outcome for COc1ccc2c(c1OC)CN1CCc3cc4c(cc3C1C2)OCO4 (stereo not given)
result: inactive

query: // lookup outcome for O=C(O)c1ccc2[nH]cc(CCCCN3CC=C(c4ccccc4)CC3)c2c1
result: inactive

query: // lookup outcome for CCC1(C2=NCCN2)Cc2ccccc2O1 (stereo not given)
result: inactive

query: // lookup outcome for O=P1(NCCCl)OCCCN1CCCl (stereo not given)
result: inactive

query: // lookup outcome for C=C1C[C@@H]2[C@H](CC[C@]3(C)C(=O)CC[C@@H]23)[C@@]2(C)C=CC(=O)C=C12
result: inactive

Next:
query: // lookup outcome for NN=C(N)N
result: inactive

query: // lookup outcome for OCCOc1ccccc1
result: inactive

----------
Test system: AS120
experimental-protocol: qHTS profiling for inhibitors of Plasmodium falciparum proliferation (AID 504749); also: nearly all actives have a fitted effect of over 60% in size
measurement-conditions: P. falciparum in erythrocytes, SYBR Green DNA, 72 h; series mostly up to 28.7 µM
Records with an inconclusive call do not appear. The source made the active and inactive calls. Calls come from the whole dose curve; as a rule, active = well fitted inhibition curve with a large enough effect; inconclusive = small, poorly fitted or top-dose-only effect; inactive = flat fitted curve, though single readings scatter.
Classes to choose from: active, inactive

# count of solved cases: 2
query: Short answer needed: outcome of this test for CC(C)(N)Cc1ccc(Cl)cc1 ?
result: inactive

query: Short answer needed: outcome of this test for Cc1ccc(-c2nc3ccc(C)cn3c2CC(=O)N(C)C)cc1 ?
result: inactive

Next:
query: Short answer needed: outcome of this test for C#CCOC(C(=O)OCCN(C)C)(c1ccccc1)c1ccccc1 ?
result: inactive

query: Short answer needed: outcome of this test for CC(C)=CC1C(C(=O)OCc2cccc(Oc3ccccc3)c2)C1(C)C (stereo unspecified) ?
result: inactive

query: Short answer needed: outcome of this test for NCC(CC(=O)O)c1ccc(Cl)cc1 (stereo unspecified) ?
result: inactive

query: Short answer needed: outcome of this test for C=C1CC[C@@]2(O)[C@H]3Cc4ccc(O)c5c4[C@@]2(CCN3CC2CC2)[C@H]1O5 ?
result: inactive

query: Short answer needed: outcome of this test for CCOP(=S)(OCC)Oc1cc(C)nc(C(C)C)n1 ?
result: inactive

query: Short answer needed: outcome of this test for CC(=O)[C@H]1CC[C@H]2[C@@H]3CC[C@H]4C[C@H](O)CC[C@]4(C)[C@H]3C(=O)C[C@]12C ?
result: inactive

query: Short answer needed: outcome of this test for NP(N)(=O)NC(=O)c1ccc(F)cc1 ?
result: inactive

query: Short answer needed: outcome of this test for O=c1[nH]c2ccccc2n1CCCN1CCC(n2c(=O)[nH]c3cc(Cl)ccc32)CC1 ?
result: active

query: Short answer needed: outcome of this test for Cc1ccc(S(=O)(=O)N[C@@H](CCCCN)C(=O)CCl)cc1 ?
result: active
